test: Biodistribution in baboon kidney medulla at 340 mg, iv after 30 mins
Assay type: ADME, organism-based
setup conditions: papio hamadryas, read-out: Drug uptake
measurement label: concentration at 0.5 h

{"columns": ["substance smiles", "measurement label", "result"],
 "data": [
  ["N[11C](=O)c1cnccn1", "concentration at 0.5 h", "474 µg/mL"]
]}

---

test: Biodistribution in baboon heart at 340 mg, iv after 15 mins
Type: ADME, organism-based
setup conditions: papio hamadryas, read-out: Drug uptake

{"columns": ["substance smiles", "concentration at 0.25 h"],
 "data": [
  ["N[11C](=O)c1cnccn1", "67.8 µg/mL"]
]}
